target: Kv1.2 (Homo sapiens, UniProt P16389); assay: patch-clamp electrophysiology
Sequence (P16389 whole entry): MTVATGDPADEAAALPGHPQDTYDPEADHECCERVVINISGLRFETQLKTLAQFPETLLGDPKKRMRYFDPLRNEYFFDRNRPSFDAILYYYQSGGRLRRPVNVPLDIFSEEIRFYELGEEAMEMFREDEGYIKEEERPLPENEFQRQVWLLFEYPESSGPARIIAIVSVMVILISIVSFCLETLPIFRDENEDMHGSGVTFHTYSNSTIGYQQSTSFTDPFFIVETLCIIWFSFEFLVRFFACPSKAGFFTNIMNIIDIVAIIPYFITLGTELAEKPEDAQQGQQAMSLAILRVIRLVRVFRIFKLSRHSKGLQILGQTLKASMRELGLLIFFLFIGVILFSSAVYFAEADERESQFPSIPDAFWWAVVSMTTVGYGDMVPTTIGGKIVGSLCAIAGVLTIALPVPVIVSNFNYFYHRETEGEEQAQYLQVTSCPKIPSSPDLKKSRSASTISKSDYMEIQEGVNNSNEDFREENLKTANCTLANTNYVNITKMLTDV

[
  {
    "binder": "TFINHKCKSSSECLPACKAAIGRASGKCINSTCKCYY [Cm39]",
    "Kd, nM": 65
  }
]
